Data origin: paper PMC2837466

Target: human serum albumin (HSA) (Homo sapiens)
Sequence (P02768 25-609): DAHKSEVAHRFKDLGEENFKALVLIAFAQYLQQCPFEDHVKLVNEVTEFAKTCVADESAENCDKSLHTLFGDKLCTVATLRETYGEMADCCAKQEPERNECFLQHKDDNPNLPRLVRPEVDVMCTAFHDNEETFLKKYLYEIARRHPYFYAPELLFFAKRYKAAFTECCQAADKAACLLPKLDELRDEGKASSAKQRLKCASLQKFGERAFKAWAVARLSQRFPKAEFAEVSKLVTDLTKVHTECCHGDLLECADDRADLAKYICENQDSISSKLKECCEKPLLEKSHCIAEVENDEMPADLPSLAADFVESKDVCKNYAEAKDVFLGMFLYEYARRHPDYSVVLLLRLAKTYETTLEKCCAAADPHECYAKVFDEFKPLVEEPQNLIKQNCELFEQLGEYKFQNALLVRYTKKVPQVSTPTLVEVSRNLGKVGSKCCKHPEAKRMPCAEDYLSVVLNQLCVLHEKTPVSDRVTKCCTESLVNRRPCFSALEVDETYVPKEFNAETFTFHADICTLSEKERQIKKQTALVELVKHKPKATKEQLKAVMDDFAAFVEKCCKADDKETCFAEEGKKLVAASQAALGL
Experiment: high-performance affinity chromatography, frontal analysis
reported_metric: Kd (µM)
Numbers only here, please. The scale is µM.

Please tell me: Kd of CCN(CC)CC(=O)Nc1c(C)cccc1C [lidocaine] , system human serum albumin (HSA) (Homo sapiens)?
21.3
